molecular target: C-X-C chemokine receptor type 6 (Homo sapiens) (UniProt O00574); assay: antagonism across CCR6, APJ and CXCR6 receptors, profiling panel, selectivity assay for CXCR6 antagonist project, cell-based, CHO-K1 PathHunter beta-arrestin, luminescence, set 3 (AID 651708); details: antagonist mode, CXCR6, mean of runs
Sequence (O00574 whole entry, looked up): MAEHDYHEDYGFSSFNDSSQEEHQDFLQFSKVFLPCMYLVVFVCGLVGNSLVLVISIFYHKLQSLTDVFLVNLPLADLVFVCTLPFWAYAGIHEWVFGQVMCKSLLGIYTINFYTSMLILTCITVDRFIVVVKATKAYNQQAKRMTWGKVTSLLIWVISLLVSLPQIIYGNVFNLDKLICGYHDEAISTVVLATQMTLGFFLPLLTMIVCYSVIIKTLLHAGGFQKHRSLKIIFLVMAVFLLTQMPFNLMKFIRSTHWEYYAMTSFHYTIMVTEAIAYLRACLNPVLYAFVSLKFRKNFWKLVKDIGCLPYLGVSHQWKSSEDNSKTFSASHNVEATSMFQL
Activity calls are given as the source filed them.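 Rule for the calls: active = compound with IC50 above 30 µM at both the APJ and CCR6 off-target receptors, and at most 10 µM at CXCR6; inactive = the rest.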
Give one outcome, nothing more. List: active, inactive

q: Check the results log: what was the call for COc1cc(C(=O)NC2CC3CCCC(C2)N3CC(=O)Nc2ccc(Cl)cc2)cc(OC)c1OC (stereo not drawn) ?
a: active

q: Param item: COc1cccc(C(=O)NC2CC3CCCC(C2)N3CC(=O)Nc2ccc(C)cc2)c1 (stereo not drawn)
a: inactive

q: Let us now turn to COc1cc(OC)cc(C(=O)NC2CC3CCCC(C2)N3CC(=O)Nc2ccc(C)cc2)c1 (stereo not drawn)
a: inactive

q: How about this molecule: COc1ccc(C(=O)NC2CC3CCCC(C2)N3CC(=O)Nc2ccc(F)cc2)cc1OC (stereo not drawn)
a: inactive

q: Now consider O=C(CN1C2CCCC1CC(NC(=O)c1ccccc1)C2)Nc1ccccc1 (stereo not drawn) and answer again.
a: inactive

q: // same read-out, input: COc1ccc(C(=O)NC2CC3CCCC(C2)N3CC(=O)Nc2ccc(C)cc2)cc1OC (stereo not drawn)
a: inactive

q: Field entry: COc1ccc(NC(=O)CN2C3CCCC2CC(NC(=O)c2ccc(OC)c(OC)c2)C3)cc1 (stereo not drawn)
a: inactive

q: Please do the same for COc1cccc(C(=O)NC2CC3CCCC(C2)N3CC(=O)Nc2ccc(Cl)cc2)c1 (stereo not drawn) as well.
a: inactive

q: Entry to check: COc1ccc(NC(=O)CN2C3CCCC2CC(NC(=O)c2ccc(OC)cc2)C3)cc1 (stereo not drawn)
a: inactive

q: Could you do the same for COc1cc(OC)cc(C(=O)NC2CC3CCCC(C2)N3CC(=O)Nc2ccccc2)c1 (stereo not drawn) , please?
a: inactive

q: # iterate: COc1ccc(NC(=O)CN2C3CCCC2CC(NC(=O)c2cccc(OC)c2)C3)cc1 (stereo not drawn)
a: inactive

q: // repeat for COc1ccc(C(=O)NC2CC3CCCC(C2)N3CC(=O)Nc2ccccc2)cc1 (stereo not drawn) and report
a: inactive

q: Check COc1ccc(NC(=O)CN2C3CCCC2CC(NC(=O)c2cc(OC)cc(OC)c2)C3)cc1 (stereo not drawn) too.
a: inactive

q: How about this molecule: COc1cc(C(=O)NC2CC3CCCC(C2)N3CC(=O)Nc2ccc(C)cc2)cc(OC)c1OC (stereo not drawn)
a: active

q: Also COc1ccc(C(=O)NC2CC3CCCC(C2)N3CC(=O)Nc2ccc(F)cc2)cc1 (stereo not drawn) , if possible.
a: inactive

q: Repeat for the following molecule: COc1cc(C(=O)NC2CC3CCCC(C2)N3CC(=O)Nc2ccccc2Cl)cc(OC)c1OC (stereo not drawn)
a: active

q: How about COc1ccc(C(=O)NC2CC3CCCC(C2)N3CC(=O)Nc2ccc(C)cc2)cc1 (stereo not drawn) ?
a: inactive

q: Another molecule: O=C(CN1C2CCCC1CC(NC(=O)c1ccc3c(c1)OCO3)C2)Nc1ccccc1 (stereo not drawn)
a: inactive

q: Consider next the molecule COc1ccc(NC(=O)CN2C3CCCC2CC(NC(=O)c2cc(OC)c(OC)c(OC)c2)C3)cc1 (stereo not drawn) in the same way.
a: inactive

q: Same question for COc1cccc(C(=O)NC2CC3CCCC(C2)N3CC(=O)Nc2ccccc2)c1 (stereo not drawn) please.
a: inactive

q: Now try COc1cc(OC)cc(C(=O)NC2CC3CCCC(C2)N3CC(=O)Nc2ccc(F)cc2)c1 (stereo not drawn) .
a: inactive

q: For COc1ccc(C(=O)NC2CC3CCCC(C2)N3CC(=O)Nc2ccc(Cl)cc2)cc1 (stereo not drawn) then?
a: inactive

q: Try COc1ccc(CN2C3CCCC2CC(NC(=O)c2cc(OC)c(OC)c(OC)c2)C3)cc1 (stereo not drawn) next.
a: inactive

q: What do we get for COc1cc(C(=O)NC2CC3CCCC(C2)N3CC(=O)Nc2ccc(F)cc2)cc(OC)c1OC (stereo not drawn) ?
a: active

q: Try this molecule too: COc1ccccc1NC(=O)CN1C2CCCC1CC(NC(=O)c1cc(OC)c(OC)c(OC)c1)C2 (stereo not drawn)
a: active

q: Now consider O=C(CN1C2CCCC1CC(NC(=O)c1ccc3c(c1)OCO3)C2)Nc1ccc(Cl)cc1 (stereo not drawn) .
a: inactive

q: Please give the result for O=C(CN1C2CCCC1CC(NC(=O)c1ccc3c(c1)OCO3)C2)Nc1ccc(F)cc1 (stereo not drawn) too.
a: inactive

q: Another molecule to look at: Cc1ccc(NC(=O)CN2C3CCCC2CC(NC(=O)c2ccc4c(c2)OCO4)C3)cc1 (stereo not drawn)
a: inactive

q: Param item: COc1ccc(C(=O)NC2CC3CCCC(C2)N3CC(=O)Nc2ccc(Cl)cc2)cc1OC (stereo not drawn)
a: inactive

q: COc1cc(OC)cc(C(=O)NC2CC3CCCC(C2)N3CC(=O)Nc2ccc(Cl)cc2)c1 (stereo not drawn) , same question.
a: inactive

q: And what about the molecule COc1ccc(C(=O)NC2CC3CCCC(C2)N3CC(=O)Nc2ccccc2)cc1OC (stereo not drawn) ?
a: inactive

q: // next record COc1ccc(NC(=O)CN2C3CCCC2CC(NC(=O)c2ccc4c(c2)OCO4)C3)cc1 (stereo not drawn)
a: inactive

q: // query: COc1cccc(C(=O)NC2CC3CCCC(C2)N3CC(=O)Nc2ccc(F)cc2)c1 (stereo not drawn)
a: inactive

====

target: Apelin receptor (Homo sapiens) (UniProt P35414); assay: antagonism across CCR6, APJ and CXCR6 receptors, profiling panel, selectivity assay for CXCR6 antagonist project, cell-based, CHO-K1 PathHunter beta-arrestin, luminescence, set 3 (AID 651708); conditions: antagonist mode, APJ, run 2
Sequence (P35414 whole entry, looked up): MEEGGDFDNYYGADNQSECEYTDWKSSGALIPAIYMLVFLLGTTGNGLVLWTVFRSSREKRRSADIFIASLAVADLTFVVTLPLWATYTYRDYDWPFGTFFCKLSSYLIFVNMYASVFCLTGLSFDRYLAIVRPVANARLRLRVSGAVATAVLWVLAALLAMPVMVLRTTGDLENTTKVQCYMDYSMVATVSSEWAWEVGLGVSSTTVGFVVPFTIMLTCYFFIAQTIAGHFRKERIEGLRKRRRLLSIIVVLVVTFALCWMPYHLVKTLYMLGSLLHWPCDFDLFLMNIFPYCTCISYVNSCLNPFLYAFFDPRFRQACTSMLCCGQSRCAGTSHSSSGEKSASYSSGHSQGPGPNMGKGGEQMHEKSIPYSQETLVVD
pIC50: −log10 of the molar value.
For each of the compounds below, state its pIC50.

q: Which pIC50 value belongs to COc1ccc(NC(=O)CN2C3CCCC2CC(NC(=O)c2cccc(OC)c2)C3)cc1 (centres undefined) ?
a: < 4.10

q: Next up: COc1ccccc1NC(=O)CN1C2CCCC1CC(NC(=O)c1cc(OC)c(OC)c(OC)c1)C2 (centres undefined)
a: 4.60

q: Check COc1cc(C(=O)NC2CC3CCCC(C2)N3CC(=O)Nc2ccc(Cl)cc2)cc(OC)c1OC (centres undefined) too.
a: 4.28

q: Request: COc1ccc(C(=O)NC2CC3CCCC(C2)N3CC(=O)Nc2ccc(F)cc2)cc1 (centres undefined)
a: < 4.10

q: Here is the next compound: COc1cc(OC)cc(C(=O)NC2CC3CCCC(C2)N3CC(=O)Nc2ccc(C)cc2)c1 (centres undefined)
a: < 4.10

q: Also COc1cc(C(=O)NC2CC3CCCC(C2)N3CC(=O)Nc2ccc(F)cc2)cc(OC)c1OC (centres undefined) , if possible.
a: < 4.10

q: Repeat with Cc1ccc(NC(=O)CN2C3CCCC2CC(NC(=O)c2ccc4c(c2)OCO4)C3)cc1 (centres undefined)
a: 4.54

q: Would you kindly repeat that for COc1ccc(C(=O)NC2CC3CCCC(C2)N3CC(=O)Nc2ccccc2)cc1OC (centres undefined) ?
a: < 4.10

q: Try the compound COc1cccc(C(=O)NC2CC3CCCC(C2)N3CC(=O)Nc2ccc(C)cc2)c1 (centres undefined)
a: 5.93

q: Now try COc1cccc(C(=O)NC2CC3CCCC(C2)N3CC(=O)Nc2ccc(F)cc2)c1 (centres undefined) .
a: < 4.10

q: Again, but for COc1cc(OC)cc(C(=O)NC2CC3CCCC(C2)N3CC(=O)Nc2ccc(Cl)cc2)c1 (centres undefined)
a: < 4.10

q: Continue with COc1cc(C(=O)NC2CC3CCCC(C2)N3CC(=O)Nc2ccccc2Cl)cc(OC)c1OC (centres undefined)
a: 6.09

q: Input COc1ccc(NC(=O)CN2C3CCCC2CC(NC(=O)c2cc(OC)cc(OC)c2)C3)cc1 (centres undefined)
a: < 4.10

q: Next entry: COc1cc(OC)cc(C(=O)NC2CC3CCCC(C2)N3CC(=O)Nc2ccc(F)cc2)c1 (centres undefined)
a: < 4.10

q: Would you mind doing COc1cc(C(=O)NC2CC3CCCC(C2)N3CC(=O)Nc2ccc(C)cc2)cc(OC)c1OC (centres undefined) as well?
a: < 4.10

q: Now this one: COc1ccc(C(=O)NC2CC3CCCC(C2)N3CC(=O)Nc2ccc(Cl)cc2)cc1OC (centres undefined)
a: < 4.10

q: And the next one, COc1cc(OC)cc(C(=O)NC2CC3CCCC(C2)N3CC(=O)Nc2ccccc2)c1 (centres undefined) ?
a: 4.95

q: Now consider COc1ccc(CN2C3CCCC2CC(NC(=O)c2cc(OC)c(OC)c(OC)c2)C3)cc1 (centres undefined) .
a: 4.62

q: Cool, now COc1ccc(C(=O)NC2CC3CCCC(C2)N3CC(=O)Nc2ccc(F)cc2)cc1OC (centres undefined)
a: < 4.10
